The entries below come with measured EC50(nM), inhibition of BxPC-3 cell proliferation values attached.
- measuredOn: T1, TROP2 (UniProt P09758 27-323, limits assumed)
- T1 sequence (looked up): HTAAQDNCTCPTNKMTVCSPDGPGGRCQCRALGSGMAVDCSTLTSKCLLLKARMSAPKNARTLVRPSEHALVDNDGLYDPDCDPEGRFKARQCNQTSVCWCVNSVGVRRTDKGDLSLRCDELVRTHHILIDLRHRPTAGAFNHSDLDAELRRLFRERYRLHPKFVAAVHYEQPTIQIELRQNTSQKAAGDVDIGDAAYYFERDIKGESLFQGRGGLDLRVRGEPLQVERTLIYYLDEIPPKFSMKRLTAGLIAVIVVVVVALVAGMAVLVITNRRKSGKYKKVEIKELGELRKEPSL
- protocolText: cell-based or functional assay

binder	observedMeasurement
hRS7-CPD6-NC-D4 (antibody, human IgG1, kappa, V domains shown, linker-drug CPD6 on cysteines of reduced interchain disulfides; label D4) VH: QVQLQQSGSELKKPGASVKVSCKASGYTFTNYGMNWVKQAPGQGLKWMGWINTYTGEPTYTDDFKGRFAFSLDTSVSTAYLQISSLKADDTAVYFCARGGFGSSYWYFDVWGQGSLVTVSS VL: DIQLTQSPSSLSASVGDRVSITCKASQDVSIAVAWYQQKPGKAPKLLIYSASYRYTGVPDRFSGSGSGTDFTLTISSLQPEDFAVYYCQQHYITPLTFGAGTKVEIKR	0.341 nM

Value lookup for EC50(nM), inhibition of BxPC-3 cell proliferation; key = hRS7-CPD3-NC-D4 (antibody, human IgG1, kappa, V domains shown, linker-drug CPD3 on cysteines of reduced interchain disulfides; label D4) VH: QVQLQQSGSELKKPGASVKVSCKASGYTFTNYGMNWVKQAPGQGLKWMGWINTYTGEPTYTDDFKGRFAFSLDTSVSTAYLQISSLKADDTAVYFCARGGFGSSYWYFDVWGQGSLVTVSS VL: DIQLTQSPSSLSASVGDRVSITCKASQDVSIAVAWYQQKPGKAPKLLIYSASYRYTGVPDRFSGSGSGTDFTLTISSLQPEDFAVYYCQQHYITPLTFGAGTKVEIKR 0.309 nM

Value lookup for EC50(nM), inhibition of BxPC-3 cell proliferation; key = hRS7-CPD4-NC-D4 (antibody, human IgG1, kappa, V domains shown, linker-drug CPD4 on cysteines of reduced interchain disulfides; label D4) VH: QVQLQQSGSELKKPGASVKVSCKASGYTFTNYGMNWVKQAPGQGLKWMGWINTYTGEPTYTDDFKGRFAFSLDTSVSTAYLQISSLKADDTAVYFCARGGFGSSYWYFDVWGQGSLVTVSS VL: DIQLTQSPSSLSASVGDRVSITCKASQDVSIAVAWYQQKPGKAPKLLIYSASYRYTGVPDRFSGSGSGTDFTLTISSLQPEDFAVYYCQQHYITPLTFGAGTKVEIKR 0.424 nM

Each recorded value in this set is attributed to patent EP4588489A1.
